Recorded values, source patent US20150368338A1.

molecular target: T1, human IFN-ω (human, UniProt P05000 24-195); experiment: ProteOn, one antigen concentration
T1 construct: also called interferon omega
Measured pKd accompanies every entry in the list below.
Give only the number. pKd is defined as minus log10 of concentration in molar units.

IFWM3311 (antibody, V domains shown, VH IFWH591, VL IFWL1009; converted mAb; also called IFWB3046) VH: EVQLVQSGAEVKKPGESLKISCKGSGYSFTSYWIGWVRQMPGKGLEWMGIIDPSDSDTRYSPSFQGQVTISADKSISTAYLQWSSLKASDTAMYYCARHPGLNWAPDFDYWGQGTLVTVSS VL: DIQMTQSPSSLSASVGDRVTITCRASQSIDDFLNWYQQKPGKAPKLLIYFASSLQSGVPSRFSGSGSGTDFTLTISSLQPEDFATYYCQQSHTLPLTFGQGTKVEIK
10.92

API: the following record is the query input.
What does the record list as pKd for IFWM3332 (antibody, V domains shown, VH IFWH591, VL IFWL1074; converted mAb; also called IFWB3067) VH: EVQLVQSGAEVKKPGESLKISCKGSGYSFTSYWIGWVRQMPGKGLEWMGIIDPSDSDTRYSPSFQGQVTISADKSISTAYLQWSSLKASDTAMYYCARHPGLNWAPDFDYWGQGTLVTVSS VL: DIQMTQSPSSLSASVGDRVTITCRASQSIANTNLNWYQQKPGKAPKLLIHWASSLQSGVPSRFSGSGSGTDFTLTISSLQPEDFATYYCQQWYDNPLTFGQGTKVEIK ?
10.47
